Test system: TDF
Assay: cell number relative to DMSO (% of DMSO); higher = more cells (less growth inhibition / toxicity);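 also: TDF denotes transformed human dermal fibroblasts of mesenchymal origin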
Conditions: concentration: 10 µM; 24 h
REPORTED_METRIC: cell number
Keep the answer to the number alone.

query: Record Brc1c(Br)c(Br)c2n[nH]nc2c1Br [TBB - 4,5,6,7-Tetrabromobenzotriazole] : what is its cell number with TDF?
result: 96.4

query: And then c1ccc(-c2[nH]ncc2-c2ccnc3ccccc23)nc1 [TGF-b RI Kinase Inhibitor] , what is it?
result: 103

query: And then COc1cc2c(cc1OC)-c1cc(=Nc3c(C)cc(C)cc3C)n(C)c(=O)n1CC2.Cl [Trequinsin hydrochloride] , what is it?
result: 111

query: And then Cc1ccc(N(CC2=NCCN2)c2cccc(O)c2)cc1 [Phentolamine] , what is it?
result: 100

* * *

System: HCC1569
Test: cell number relative to DMSO (% of DMSO); higher = more cells (less growth inhibition / toxicity)
Details: concentration: 10 µM; 24 h
I'd appreciate it if you could supply cell number values for the items below.
Keep the answer to the number alone.

query: Return reported cell number; argument: Cl.O=c1cc(N2CCOCC2)oc2c(-c3ccccc3)cccc12 [LY-294,002 hydrochloride]
result: 82

query: And then `Cc1ccc(F)c(NC(=O)Nc2ccc(-c3cccc4[nH]nc(N)c34)cc2)c1` , what is it?
result: 92.4

query: And then COc1nccc(-c2c(-c3ccc(F)cc3)ncn2C2CCC(O)CC2)n1 (centres undefined) , what is it?
result: 100

query: And then O=C1c2c(O)cc(O)cc2OC(c2ccc(O)c(O)c2)C1O (single isomer, unassigned; (+)) [(+)-Taxifolin] , what is it?
result: 99.5

query: And then CC=C(C)C(=O)OC1CC(C)=CC(=O)C2(C)CCC(O)(C(C)C)C12 (centres undefined) [Lapidin] , what is it?
result: 104

query: And then O=c1cc(N2CCOCC2)oc2c1ccc1ccccc12 [DNA-PK Inhibitor II] , what is it?
result: 98.1

query: And then N#Cc1ccc(C(c2ccc(C#N)cc2)n2cncn2)cc1 [Letrozole] , what is it?
result: 100

query: And then CC(C)(CO)C(O)C(=O)NCCC(=O)O (centres undefined) [Pantothenic acid] , what is it?
result: 104

query: And then `CC(=O)N[C@@H](CS)C(N)=O` , what is it?
result: 109

* * *

Test system: TDF
Experiment: cell number relative to DMSO (% of DMSO); higher = more cells (less growth inhibition / toxicity)
Conditions: concentration: 10 µM; 24 h
I'd appreciate it if you could supply cell number values for the items below.
Keep the answer to the number alone.

query: Return reported cell number; argument: N#Cc1cccc(-c2c[nH]c3ncnc(N4CCOCC4)c23)c1 [3-(4-morpholino-7H-pyrrolo[2,3-d]pyrimidin-5-yl)benzonitrile]
result: 110

query: And then `Nc1ccc(C(=O)Nc2cccc(-c3nc(N4CCOCC4)c4oc5ncccc5c4n3)c2)cn1` , what is it?
result: 56.2

query: And then C[N+]1(C)CCC(OC(=O)C(c2ccccc2)c2ccccc2)CC1.[I-] [4-DAMP methiodide] , what is it?
result: 105

query: And then CN(C)CCC(c1ccc(Br)cc1)c1ccccn1.O=C(O)C=CC(=O)O (racemic) , what is it?
result: 98.7

query: And then `COc1cc2ncnc(Nc3ccc(NC(=O)c4ccccc4)cc3)c2cc1OC` , what is it?
result: 54.8

query: And then COC(=O)C1C2CC3c4[nH]c5cc(OC)ccc5c4CCN3CC2CC(OC(=O)c2cc(OC)c(OC)c(OC)c2)C1OC (single isomer, unassigned; (-)) [(-)-Isoreserpine] , what is it?
result: 107

From: the supplement of paper PMC7156485
